For each of the compounds below, state its cell viability.
Test system: Calu-3
Assay: cell viability relative to DMSO; higher = less toxic
Settings: 72 h; 1000 nM
Give bare numbers, in %.

These solved cases illustrate the format of a correct answer.
Compound: C/C=C1\NC(=O)[C@H]2CSSCC/C=C/[C@H](CC(=O)N[C@H](C(C)C)C(=O)N2)OC(=O)[C@H](C(C)C)NC1=O
Test Target: Calu-3
Endpoint: cell viability
Value: 6.3
//
Compound: COc1ccc(OC[C@@H]2c3cc(OC)c(OC)cc3CCN2C(=O)c2cccc(Cl)c2)cc1
Test Target: Calu-3
Endpoint: cell viability
Value: 109
//
Compound: CCN(CC)CCOC(=O)C1(c2ccc([N+](=O)[O-])cc2)CCCC1
Test Target: Calu-3
Endpoint: cell viability
Value: 94
//
Compound: CCn1cc(C(=O)O)c(=O)c2cc(F)c(N3CCNCC3)cc21
Test Target: Calu-3
Endpoint: cell viability
Value: 91.3
//
Compound: C=C1CC[C@H](O)C/C1=C/C=C1\CCC[C@]2(C)[C@@H]([C@H](C)CCCC(C)(C)O)CC[C@@H]12
Test Target: Calu-3
Endpoint: cell viability
Value: 103
//
Compound: O=c1ccc2ccc(O)c(O)c2o1
Test Target: Calu-3
Endpoint: cell viability
Value: 99.9
//
Compound: Cc1c(Cl)cccc1Nc1ccccc1C(=O)O
Test Target: Calu-3
Endpoint: cell viability
Value: 92.4
//
Compound: CN(C)CCCSC(=N)N
Test Target: Calu-3
Endpoint: cell viability
Value: 99.1

Here are 7 compounds. What values of cell viability were reported for them?
1. Nc1nc2c(ncn2[C@@H]2O[C@H](CO)[C@@H](O)[C@H]2O)c(=O)[nH]1
2. CCCCCCCCCCC(O)C1C=CC2C(=O)N(c3ccccc3)C(=O)C2N1Nc1ccc([N+](=O)[O-])cc1 (stereo not given)
3. C[C@@H](O)[C@H]1C(=O)N2C(C(=O)O)=C(S[C@@H]3CN[C@H](CNS(N)(=O)=O)C3)[C@H](C)[C@H]12
4. CCOC(=O)OC(C)OC(=O)[C@@H]1N2C(=O)[C@@H](NC(=O)[C@H](N)c3ccccc3)[C@H]2SC1(C)C (stereo not given in full)
5. CCCCCCCCCCCCc1ccc(S(=O)(=O)Nc2nncs2)cc1
6. Cc1ccc(F)cc1C(=O)Nc1ccc(C(=O)N2Cc3cccn3Cc3ccccc32)c(Cl)c1
7. CCC(Cc1c(I)cc(I)c(N)c1I)C(=O)O (stereo not given)

97
96.2
95.1
103
99.6
105
102

###

System: Caco-2
Experiment: cell viability relative to DMSO; higher = less toxic
Settings: 72 h; 1000 nM
Endpoint: cell viability

Reference set, count: 5
Smiles Representation: C[C@@H](N)[C@H]1CC[C@H](C(=O)Nc2ccncc2)CC1
cell viability: 104%

Smiles Representation: CN1CCC(=C2c3ccccc3CCn3c(C=O)cnc32)CC1
cell viability: 98.5%

Smiles Representation: CCCCNc1ccc(C(=O)OCCN(C)C)cc1
cell viability: 100%

Smiles Representation: NC[C@@](O)(c1ccc(Cl)cc1)c1ccc(-c2cn[nH]c2)cc1
cell viability: 99.9%

Smiles Representation: N[C@@H](CC(=O)N1CCn2c(nnc2C(F)(F)F)C1)Cc1n[nH]c2c(F)c(F)ccc12
cell viability: 105%

Items follow; give cell viability for each.
1. Cc1cccc(C)c1NC(=O)C[N+](C)(C)C
2. CC1=C(CC(=O)O)c2cc(F)ccc2/C1=C\c1ccc(S(C)(=O)=O)cc1
3. Cc1c(Cl)cccc1Nc1ccccc1C(=O)O

["100%", "84.6%", "96.4%"]
